Catalogue of GI50 values
- Test system: SNB-75
- Experiment description: NCI tumour cell line growth inhibition, 48 h
Active and inactive are the calls of the source. Rule as the data show it: active = GI50 up to about 1.1 µM and inactive = higher.

Here is how some compounds turned out for GI50.
Compound	Attribute measured	Result
Clc1ccc(NCNC2Nc3ccccc3N2)cc1Cl	GI50	19.8 µM (inactive)
CCN(CC)C(=O)C1=C(C)NC(C)=C(C(=O)N(CC)CC)C1	GI50	14.5 µM (inactive)
O=C1c2ccccc2C(=O)N1CCCCNOCCCN1C(=O)c2ccccc2C1=O	GI50	> 100 µM (inactive)
CNC1C(=O)C(C)C(O)(C(CC(C)C(O)/C=C/C=C/CNC(=O)C(C)(C)C(O)\C(C)=C/C=C\C=C\Cc2cnc(C)o2)OC)C12C(=O)OC2C.CNC1C(=O)C(C)C(O)(C(CC(C)C(O)/C=C/C=C/CNC(=O)C(C)(C)C(O)\C(C)=C/C=C\C=C\Cc2cnc(C)o2)OC)C12C(=O)OC2COC (configuration not stated)	GI50	0.942 µM (active)
CC(=O)N(C(=O)CC(=O)N1N=C(C)C(/N=N/c2cccc([N+](=O)[O-])c2)C1=O)c1ccc(Cl)cc1 (configuration not stated)	GI50	> 10 µM (inactive)

Entry under review: CC1(C)C=[N+]([O-])C(C)(C)N1 . Reported GI50?
> 100 µM (inactive)

Entry under review: O=c1[nH]cnc2sc(=S)c3c(c12)CCC3 . Reported GI50?
> 100 µM (inactive)

Entry under review: CC(=O)Oc1cc2c(cc1OC(C)=O)[C@H]1CC[C@]3(C)[C@@H](OC(C)=O)CC[C@H]3[C@@H]1CC2 . Reported GI50?
0.162 µM (active)

Entry under review: Cc1ccc(NCCN(C)C)c2c(=O)c3cc(O)ccc3sc12 . Reported GI50?
1.34 µM (inactive)

Entry under review: Cc1nc(-n2nc(-c3ccccc3)cc2-c2ccccc2)sc1C(=O)/C=C/c1ccc(Cl)cc1 . Reported GI50?
6.1 µM (inactive)

Entry under review: N#CC12Cc3ccc4c(c3-c3cccc(c31)CCN2C(=O)c1ccccc1)OCO4 (configuration not stated) . Reported GI50?
34.7 µM (inactive)

Entry under review: Cc1cc(C)c(C2=NO[C@@H]3[C@H]2C(=O)C=C2N(Cc4ccccc4)CCO[C@@]23O)c(C)c1 . Reported GI50?
> 94.2 µM (inactive)
